molecular target: Tubulin alpha chain (Sus scrofa, UniProt P02550)
Sequence (P02550 whole entry, looked up): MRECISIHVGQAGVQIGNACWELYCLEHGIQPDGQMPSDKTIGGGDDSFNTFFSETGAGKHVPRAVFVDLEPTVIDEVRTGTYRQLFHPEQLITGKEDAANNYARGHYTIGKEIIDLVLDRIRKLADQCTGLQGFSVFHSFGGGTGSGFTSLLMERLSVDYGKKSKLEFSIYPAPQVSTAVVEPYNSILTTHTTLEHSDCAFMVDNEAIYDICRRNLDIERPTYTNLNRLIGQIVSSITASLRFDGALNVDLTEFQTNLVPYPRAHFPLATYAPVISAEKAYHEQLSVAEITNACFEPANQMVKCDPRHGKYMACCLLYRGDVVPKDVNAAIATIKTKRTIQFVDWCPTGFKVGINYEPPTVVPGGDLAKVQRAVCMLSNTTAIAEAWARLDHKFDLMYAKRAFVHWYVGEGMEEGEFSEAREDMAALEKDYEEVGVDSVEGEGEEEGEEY
OBSERVATION TYPE: pIC50
One number for each entry, as −log10 of the molar value.

> print(dat)
                                   compound  assay.value
1  COc1cc2c(c(OC)c1OC)-c1ccc(SC)c(=O)cc1[C@@H](NC(=O)CC(C)=O)CC2         5.85
2     COc1cccc(-c2cc(O)c3cc(N(C)C)ccc3n2)c1         6.42
3  COc1cccc([C@H]2CC(=O)c3cc4c(cc3N2)OCO4)c1         5.63
4              Cc1ccc2c(O)cc(-c3cccs3)nc2n1         5.22
5           Cc1cnc2nc(-c3ccc(C)s3)cc(O)c2c1         5.57

Would you mind listing pIC50 for each of the following compounds?
1. Cc1ccc(-c2cc(O)c3cc(C)cnc3n2)cc1
2. COc1cc2c(c(OC)c1OC)-c1ccc(SC)c(=O)cc1[C@@H](OC(=O)C13CCC(C)(C(=O)O1)C3(C)C)CC2 (stereo partly specified)
3. Oc1cc(-c2cccc(C(F)(F)F)c2)nc2cc3c(cc12)OCO3
4. Cc1ccc(-c2cc(O)c3c(C)cc(C)nc3n2)cc1
5. Cc1cnc2nc(-c3sccc3C)cc(O)c2c1
6. Cc1ccc2c(O)cc(-c3ccc4ccccc4c3)nc2n1

Response given:
1: 5.62; 2: 5.85; 3: 6.09; 4: 5.00; 5: 5.42; 6: 5.29

Cited source: ChEMBL document CHEMBL1133658
